# system-under-test: LATS1 (Homo sapiens (Human))
# protocol-summary: LATS1 biochemical assay (Table 1A, Compound Examples 1-290; method in the earlier part)
Recorded measurements of log10(IC50), one per entry
property-measured: log10(IC50) (log10 of the value in nM)

compound: CC(C)(O)CC(C)(C)Nc1nc(-c2ccncc2Cl)nc2cnccc12
system-under-test: LATS1 (Homo sapiens (Human))
log10(IC50): 1.36
--
compound: CC(Nc1nc(-c2ccncc2)nc2cnccc12)(C(=O)O)C(F)(F)F (centres unmarked)
system-under-test: LATS1 (Homo sapiens (Human))
log10(IC50): 1.32
--
compound: CCCNc1nc(-c2ccncc2C)nc2cnccc12
system-under-test: LATS1 (Homo sapiens (Human))
log10(IC50): 2.20
--
compound: C[C@@H](Nc1nc(-c2cn[nH]c2)nc2cnccc12)c1ccccc1
system-under-test: LATS1 (Homo sapiens (Human))
log10(IC50): 2.16
--
compound: CCCNc1cc(-c2ccncc2)nc2cnccc12
system-under-test: LATS1 (Homo sapiens (Human))
log10(IC50): 1.26
--
compound: CC(C)(CC#N)Nc1nc(-c2ccncc2)nc2cnccc12
system-under-test: LATS1 (Homo sapiens (Human))
log10(IC50): 0.70
--
compound: CCOC(=O)C1(Nc2nc(-c3ccncc3)nc3cnccc23)CCC1
system-under-test: LATS1 (Homo sapiens (Human))
log10(IC50): 2.66
--
compound: CC1(Nc2cc(-c3ccncc3)cc3cnccc23)CC1
system-under-test: LATS1 (Homo sapiens (Human))
log10(IC50): 0.60
--
compound: CC1(Nc2nc(-n3ccc4ncccc43)nc3cnccc23)CC1
system-under-test: LATS1 (Homo sapiens (Human))
log10(IC50): 0.30
--
compound: CC(C)(CN)Nc1nc(-c2cn[nH]c2)nc2cnccc12
system-under-test: LATS1 (Homo sapiens (Human))
log10(IC50): 1.36
--
compound: CN(C)CCC(C)(C)Nc1cc(-c2ccncc2F)nc2cnccc12
system-under-test: LATS1 (Homo sapiens (Human))
log10(IC50): 1.23
--
compound: CC1(Nc2nc(-c3cnco3)nc3cnccc23)CC1
system-under-test: LATS1 (Homo sapiens (Human))
log10(IC50): 2.51
--
compound: CC(C)(CNC(=O)OC(C)(C)C)Nc1nc(-c2ccncc2)nc2cnccc12
system-under-test: LATS1 (Homo sapiens (Human))
log10(IC50): 0.60
--
compound: C[C@](Nc1nc(-c2ccncc2)nc2cnccc12)(C(=O)O)C(F)(F)F
system-under-test: LATS1 (Homo sapiens (Human))
log10(IC50): 1.56
--
compound: CC1(Nc2nc(-c3cn[nH]c3)nc3cnccc23)CCC1
system-under-test: LATS1 (Homo sapiens (Human))
log10(IC50): 0.90
--
compound: Cc1n[nH]cc1-c1nc(NC(C)(C)C(F)(F)F)c2ccncc2n1
system-under-test: LATS1 (Homo sapiens (Human))
log10(IC50): 0.30

----------
# system-under-test: LATS1 (Homo sapiens (Human), UniProt O95835)
# Sequence (O95835 whole entry, looked up): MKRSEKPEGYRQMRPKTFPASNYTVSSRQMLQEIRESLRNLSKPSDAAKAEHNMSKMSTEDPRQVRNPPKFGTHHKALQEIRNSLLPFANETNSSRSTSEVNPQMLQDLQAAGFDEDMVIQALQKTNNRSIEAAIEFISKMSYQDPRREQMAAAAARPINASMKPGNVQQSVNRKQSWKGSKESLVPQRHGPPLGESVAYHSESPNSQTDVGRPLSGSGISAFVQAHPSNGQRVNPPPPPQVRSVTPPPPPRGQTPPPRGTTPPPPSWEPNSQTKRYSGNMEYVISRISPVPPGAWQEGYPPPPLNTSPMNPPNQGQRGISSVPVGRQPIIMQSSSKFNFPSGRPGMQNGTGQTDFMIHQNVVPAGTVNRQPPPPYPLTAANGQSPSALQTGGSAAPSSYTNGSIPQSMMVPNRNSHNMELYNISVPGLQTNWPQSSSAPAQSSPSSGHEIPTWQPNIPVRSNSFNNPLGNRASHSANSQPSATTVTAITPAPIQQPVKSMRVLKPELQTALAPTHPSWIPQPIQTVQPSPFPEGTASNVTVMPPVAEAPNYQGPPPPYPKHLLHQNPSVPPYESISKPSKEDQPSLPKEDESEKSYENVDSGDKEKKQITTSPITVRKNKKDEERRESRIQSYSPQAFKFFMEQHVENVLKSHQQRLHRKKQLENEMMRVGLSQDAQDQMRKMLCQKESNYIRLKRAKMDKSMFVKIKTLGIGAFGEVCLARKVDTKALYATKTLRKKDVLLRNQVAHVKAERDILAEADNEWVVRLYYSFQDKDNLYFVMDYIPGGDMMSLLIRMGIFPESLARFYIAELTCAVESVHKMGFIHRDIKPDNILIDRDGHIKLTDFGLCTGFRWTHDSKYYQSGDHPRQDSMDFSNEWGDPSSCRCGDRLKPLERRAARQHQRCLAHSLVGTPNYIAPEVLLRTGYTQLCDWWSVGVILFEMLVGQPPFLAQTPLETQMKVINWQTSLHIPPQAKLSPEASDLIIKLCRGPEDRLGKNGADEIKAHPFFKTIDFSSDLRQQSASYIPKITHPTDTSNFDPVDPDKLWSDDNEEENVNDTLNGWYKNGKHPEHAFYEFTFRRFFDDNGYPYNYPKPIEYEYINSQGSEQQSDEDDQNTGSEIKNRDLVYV
# Sequence (Q7L9L4 whole entry partner, looked up): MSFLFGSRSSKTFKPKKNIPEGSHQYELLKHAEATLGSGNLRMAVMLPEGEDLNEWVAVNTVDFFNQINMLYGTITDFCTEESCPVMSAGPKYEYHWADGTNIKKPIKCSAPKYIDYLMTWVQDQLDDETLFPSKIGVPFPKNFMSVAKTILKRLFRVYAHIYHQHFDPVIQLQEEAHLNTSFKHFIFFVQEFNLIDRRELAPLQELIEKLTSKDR
# protocol-summary: LATS1 biochemical assay (Table 1A, Compound Examples 1-290; method in the earlier part)
pIC50: −log10 of the molar value.
Recorded measurements of pIC50, one per entry

compound: CC(C)(CC(=O)O)NC(=O)CC(C)(C)Nc1nc(-c2ccncc2)nc2cnccc12 [Example 37]
result-modifier: =
pIC50: 6.63
//
compound: Clc1cnccc1-c1nc(NCCCc2nnn[nH]2)c2ccncc2n1 [Example 132]
result-modifier: <
pIC50: 5.60
//
compound: CCCNc1nc(-c2ccncc2)nc2cnccc12 [Example 14]
result-modifier: =
pIC50: 8.70
//
compound: CC1(Nc2nc(-c3ccncc3)nc3c(Cl)nccc23)CC1 [Example 198]
result-modifier: =
pIC50: 9.00
//
compound: OCCOCCNc1nc(-c2ccncc2)nc2cnccc12 [Example 35]
result-modifier: =
pIC50: 6.93
//
compound: Cc1noc(C)c1-c1nc(NC2(C)CC2)c2ccncc2n1 [Example 153]
result-modifier: <
pIC50: 5.30
//
compound: Cc1[nH]c2ncccc2c1-c1nc(NC(C)(C)C)c2ccncc2n1 [Example 114]
result-modifier: =
pIC50: 8.70
//
compound: CC(C)(C)CC(C)(C)Nc1nc(-c2ccncc2)nc2cnccc12 [Example 72]
result-modifier: =
pIC50: 8.40
//
compound: CC(C)(CS(C)(=O)=O)Nc1nc(-c2ccncc2)nc2cnccc12 [Example 28]
result-modifier: =
pIC50: 7.44
